# Test system: HCC1428 (Breast Carcinoma)
# assayDetails: Bliss excess, mean over the matrix (fraction); higher = more synergy

>  <compound>
Cc1cc2ncnn2cc1Nc1ncc2c(n1)n(C1CCOCC1)c(=O)n2C [AZD7648] + CCN(CCO)CCCOc1ccc2c(Nc3cc(CC(=O)Nc4cccc(F)c4)[nH]n3)ncnc2c1 [AZD2811] (first compound max 10 µM, 7x7, partner max 1 µM)

>  <Bliss excess>
0.0436

$$$$
>  <compound>
Cc1c2c(nn1C)CSCc1cc(n(C)n1)CSc1cc(c3ccccc3c1)OCCCc1c(C(=O)O)n(C)c3c-2c(Cl)ccc13 [AZD5991] + C[C@@H](Nc1cc(F)cc(F)c1)c1cc(C(=O)N(C)C)cc2c(=O)cc(N3CCOCC3)oc12 [AZD8186] (first compound max 1 µM, 7x7, partner max 3 µM)

>  <Bliss excess>
-0.009

$$$$
>  <compound>
CCc1c2c(nc3ccc(O)cc13)-c1cc3c(c(=O)n1C2)COC(=O)[C@]3(O)CC [SN-38] + CN(C)CCCOc1ccc(-c2ccc3ncc4c(c3c2)n(C2CCOCC2)c(=O)n4C)cn1 [AZD0156] (first compound max 0.3 µM, 7x7, partner max 1 µM)

>  <Bliss excess>
-0.0584

$$$$
>  <compound>
COc1nnc2ccc(N3CCC(c4ccc(OCCN5CCN(C)C(=O)[C@H]5C)cc4)CC3)nn12 [AZD5153] + C[C@@H]1COCCN1C2=NC(=NC(=C2)C3(CC3)[S@](=N)(=O)C)C4=C5C=CNC5=NC=C4 [AZD6738] (first compound max 1 µM, 7x7, partner max 10 µM)

>  <Bliss excess>
0.0209

$$$$
>  <compound>
COc1cc2ncnc(Nc3ccc(F)c(Cl)c3)c2cc1OCCCN1CCOCC1 [Gefitinib] + CC(C)n1c(=O)n(C)c2cnc3cc(F)c(-c4ccc(OCCCN5CCCCC5)nc4)cc3c21 [AZD1390] (first compound max 10 µM, 7x7, partner max 0.3 µM)

>  <Bliss excess>
-0.0393

$$$$

* * *

# Tested on: KYSE-220 (Esophageal Squamous Cell Carcinoma)
# assayDetails: Bliss excess, mean over the matrix (fraction); higher = more synergy
Output fulfilled for Bliss excess not less than 0.02; output not fulfilled otherwise.

>  <compound>
CC(=O)c1c(C)c2cnc(Nc3ccc(N4CCNCC4)cn3)nc2n(C2CCCC2)c1=O [Palbociclib] + Cc1c2c(nn1C)CSCc1cc(n(C)n1)CSc1cc(c3ccccc3c1)OCCCc1c(C(=O)O)n(C)c3c-2c(Cl)ccc13 [AZD5991] (first compound max 10 µM, 7x7, partner max 1 µM)

>  <label>
not fulfilled

$$$$
>  <compound>
CC(=O)c1c(C)c2cnc(Nc3ccc(N4CCNCC4)cn3)nc2n(C2CCCC2)c1=O [Palbociclib] + CC1(C)CCC(CN2CCN(c3ccc(C(=O)NS(=O)(=O)c4ccc(NCC5CCOCC5)c([N+](=O)[O-])c4)c(Oc4cnc5[nH]ccc5c4)c3)CC2)=C(c2ccc(Cl)cc2)C1 [Venetoclax] (first compound max 10 µM, 7x7, partner max 1 µM)

>  <label>
not fulfilled

$$$$
>  <compound>
CS(=O)(=O)CCNCc1ccc(-c2ccc3ncnc(Nc4ccc(OCc5cccc(F)c5)c(Cl)c4)c3c2)o1 [Lapatinib] + C[C@@H](Oc1cc(-c2cnn(C3CCNCC3)c2)cnc1N)c1c(Cl)ccc(F)c1Cl [Crizotinib] (first compound max 10 µM, 7x7, partner max 10 µM)

>  <label>
not fulfilled

$$$$
>  <compound>
C=CCn1c(=O)c2cnc(Nc3ccc(N4CCN(C)CC4)cc3)nc2n1-c1cccc(C(C)(C)O)n1 [AZD1775] + C[C@@H]1COCCN1C2=NC(=NC(=C2)C3(CC3)[S@](=N)(=O)C)C4=C5C=CNC5=NC=C4 [AZD6738] (first compound max 1 µM, partner max 10 µM)

>  <label>
fulfilled

$$$$
>  <compound>
C=CCn1c(=O)c2cnc(Nc3ccc(N4CCN(C)CC4)cc3)nc2n1-c1cccc(C(C)(C)O)n1 [AZD1775] + Nc1ccn([C@@H]2O[C@H](CO)[C@@H](O)C2(F)F)c(=O)n1 [Gemcitabine] (first compound max 1 µM, partner max 0.3 µM)

>  <label>
not fulfilled

$$$$
>  <compound>
CC(=O)Nc1cccc(-n2c(=O)n(C3CC3)c(=O)c3c(Nc4ccc(I)cc4F)n(C)c(=O)c(C)c32)c1 [Trametinib] + Cc1nc(-c2cn3c(n2)-c2ccc(-c4cnn(C(C)(C)C(N)=O)c4)cc2OCC3)n(C(C)C)n1 [Taselisib] (first compound max 1 µM, 7x7, partner max 10 µM)

>  <label>
fulfilled

$$$$
>  <compound>
N#Cc1cnc(Nc2cc(NC[C@H]3CNCCO3)c(C(F)(F)F)cn2)cn1 [SRA737] + CCc1c2c(nc3ccc(O)cc13)-c1cc3c(c(=O)n1C2)COC(=O)[C@]3(O)CC [SN-38] (first compound max 10 µM, 7x7, partner max 0.3 µM)

>  <label>
not fulfilled

$$$$

* * *

# Lookup of reported combination Emax keyed by entry
# Test system: AU565 (Breast Carcinoma)
# assayDetails: combination Emax (second highest fraction inhibited in the dose matrix, 72 h); higher = more inhibition; extreme values may be limits of the assay

>  <compound>
Cc1c2c(nn1C)CSCc1cc(n(C)n1)CSc1cc(c3ccccc3c1)OCCCc1c(C(=O)O)n(C)c3c-2c(Cl)ccc13 [AZD5991] + C1CN(CCC1(C(=O)N[C@@H](CCO)C2=CC=C(C=C2)Cl)N)C3=NC=NC4=C3C=CN4 [Capivasertib] (first compound max 1 µM, 7x7, partner max 3 µM)

>  <combination Emax>
1

$$$$
>  <compound>
CC1(C)CCC(CN2CCN(c3ccc(C(=O)NS(=O)(=O)c4ccc(NCC5CCOCC5)c([N+](=O)[O-])c4)c(Oc4cnc5[nH]ccc5c4)c3)CC2)=C(c2ccc(Cl)cc2)C1 [Venetoclax] + C[C@@H]1COCCN1C2=NC(=NC(=C2)C3(CC3)[S@](=N)(=O)C)C4=C5C=CNC5=NC=C4 [AZD6738] (first compound max 1 µM, 7x7, partner max 10 µM)

>  <combination Emax>
0.382

$$$$

* * *

# Test system: GA-10 (Burkitt's Lymphoma)
# assayDetails: combination Emax (second highest fraction inhibited in the dose matrix, 72 h); higher = more inhibition; extreme values may be limits of the assay
recordedMetric: combination Emax

>  <compound>
COc1cccc(OCCCN)c1-c1cc(Nc2cnc(C#N)cn2)n[nH]1 [Prexasertib] + O=C(c1cc(Cc2n[nH]c(=O)c3ccccc23)ccc1F)N1CCN(C(=O)C2CC2)CC1 [Olaparib] (first compound max 1 µM, 7x7, partner max 10 µM)

>  <recordedMetric>
combination Emax

>  <readoutValue>
0.987

$$$$
>  <compound>
CCc1c2c(nc3ccc(O)cc13)-c1cc3c(c(=O)n1C2)COC(=O)[C@]3(O)CC [SN-38] + CN(C)CCCOc1ccc(-c2ccc3ncc4c(c3c2)n(C2CCOCC2)c(=O)n4C)cn1 [AZD0156] (first compound max 0.3 µM, 7x7, partner max 1 µM)

>  <recordedMetric>
combination Emax

>  <readoutValue>
0.913

$$$$
>  <compound>
CC(=O)Nc1cccc(-n2c(=O)n(C3CC3)c(=O)c3c(Nc4ccc(I)cc4F)n(C)c(=O)c(C)c32)c1 [Trametinib] + Cc1nc(-c2cn3c(n2)-c2ccc(-c4cnn(C(C)(C)C(N)=O)c4)cc2OCC3)n(C(C)C)n1 [Taselisib] (first compound max 1 µM, 7x7, partner max 10 µM)

>  <recordedMetric>
combination Emax

>  <readoutValue>
0.682

$$$$
>  <compound>
C=CCn1c(=O)c2cnc(Nc3ccc(N4CCN(C)CC4)cc3)nc2n1-c1cccc(C(C)(C)O)n1 [AZD1775] + C[C@@H]1COCCN1C2=NC(=NC(=C2)C3(CC3)[S@](=N)(=O)C)C4=C5C=CNC5=NC=C4 [AZD6738] (first compound max 1 µM, partner max 10 µM)

>  <recordedMetric>
combination Emax

>  <readoutValue>
1

$$$$

* * *

# System: JHH-2 (Hepatocellular Carcinoma)
# assayDetails: Bliss excess, mean over the matrix (fraction); higher = more synergy

>  <compound>
C[C@@H]1COCCN1c1cc(C2([S@](C)(=N)=O)CC2)nc(-c2ccnc3[nH]ccc23)n1 [AZD6738] + C1CC(C1)(C(=O)[O-])C(=O)[O-].N.N.[Pt+2] [Carboplatin] (first compound max 10 µM, 7x7, partner max 10 µM)

>  <Bliss excess>
-0.0309

$$$$
>  <compound>
NC1(C(=O)N[C@@H](CCO)c2ccc(Cl)cc2)CCN(c2ncnc3[nH]ccc23)CC1 [Capivasertib] + COc1nnc2ccc(N3CCC(c4ccc(OCCN5CCN(C)C(=O)[C@H]5C)cc4)CC3)nn12 [AZD5153] (first compound max 10 µM, 7x7, partner max 1 µM)

>  <Bliss excess>
0.0064

$$$$
>  <compound>
COc1cccc(OCCCN)c1-c1cc(Nc2cnc(C#N)cn2)n[nH]1 [Prexasertib] + O=C(c1cc(Cc2n[nH]c(=O)c3ccccc23)ccc1F)N1CCN(C(=O)C2CC2)CC1 [Olaparib] (first compound max 1 µM, 7x7, partner max 10 µM)

>  <Bliss excess>
-0.0428

$$$$
>  <compound>
CC1(C)CCC(CN2CCN(c3ccc(C(=O)NS(=O)(=O)c4ccc(NCC5CCOCC5)c([N+](=O)[O-])c4)c(Oc4cnc5[nH]ccc5c4)c3)CC2)=C(c2ccc(Cl)cc2)C1 [Venetoclax] + Cc1cc2ncnn2cc1Nc1ncc2c(n1)n(C1CCOCC1)c(=O)n2C [AZD7648] (first compound max 1 µM, 7x7, partner max 10 µM)

>  <Bliss excess>
-0.069

$$$$
>  <compound>
Cn1cnc2c(F)c(Nc3ccc(Br)cc3Cl)c(C(=O)NOCCO)cc21 [Selumetinib] + C=CCn1c(=O)c2cnc(Nc3ccc(N4CCN(C)CC4)cc3)nc2n1-c1cccc(C(C)(C)O)n1 [AZD1775] (first compound max 10 µM, partner max 1 µM)

>  <Bliss excess>
-0.0571

$$$$
>  <compound>
CC1(C)CCC(CN2CCN(c3ccc(C(=O)NS(=O)(=O)c4ccc(NCC5CCOCC5)c([N+](=O)[O-])c4)c(Oc4cnc5[nH]ccc5c4)c3)CC2)=C(c2ccc(Cl)cc2)C1 [Venetoclax] + CN(C)CCCOc1ccc(-c2ccc3ncc4c(c3c2)n(C2CCOCC2)c(=O)n4C)cn1 [AZD0156] (first compound max 1 µM, 7x7, partner max 1 µM)

>  <Bliss excess>
-0.028

$$$$
>  <compound>
CN(CCO)CC[C@H](CSc1ccccc1)Nc1ccc(S(=O)(=O)NC(=O)c2ccc(N3CCC([C@@H](O)c4ccccc4-c4ccc(Cl)cc4)CC3)cc2)cc1S(=O)(=O)C(F)(F)F [AZD4320] + C[C@@H](Nc1cc(F)cc(F)c1)c1cc(C(=O)N(C)C)cc2c(=O)cc(N3CCOCC3)oc12 [AZD8186] (first compound max 1 µM, 7x7, partner max 3 µM)

>  <Bliss excess>
-0.0485

$$$$
